The values you see were collected from patent US12145947B2.

Target: KRAS G12D/RAF1 (Homo sapiens, UniProt P01116, G12D)
Construct: His6-MBP (N, cleaved yes); made in house; host or cells: E. coli
Sequence (P01116 with tags, fused parts or gaps isoform P01116-2 G12D): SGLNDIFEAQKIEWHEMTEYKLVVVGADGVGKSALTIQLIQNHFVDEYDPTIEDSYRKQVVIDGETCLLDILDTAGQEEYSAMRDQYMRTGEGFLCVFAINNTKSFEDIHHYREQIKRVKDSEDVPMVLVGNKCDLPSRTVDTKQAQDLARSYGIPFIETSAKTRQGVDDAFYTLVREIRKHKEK
Assay: Protein-protein interaction (PPI) HTRF assay KRAS G12D/RAF1
Format: binding
Conditions: Table 4
I'd be grateful if you could share measured IC50 for these entries.

Prompt: Param item = CN(C)CC(F)(F)COc1nc(N2C[C@H]3CC[C@@H](C2)N3)c(C#N)c(N2CC3(CCc4sc(N)c(C#N)c43)C2)n1 [Compound 26] ; retrieve measured IC50.
Completion: 10 to 100 µM

Prompt: Param item = N#Cc1c(N)sc2c1C1(CC2)CN(c2nc(OC[C@@]34CCCN3C[C@H](F)C4)nc(N3CCC[C@]4(C3)NC(=O)NC4=O)c2F)C1 [Compound 7] ; retrieve measured IC50.
Completion: 0.1 to 1 µM

Prompt: Param item = CN(C)C(=O)c1nn2c(c1Cl)CN(c1nc(OC[C@@]34CCCN3C[C@H](F)C4)nc(N3CC4(CCc5sc(N)c(C#N)c54)C3)c1F)CCC2 [Compound 9] ; retrieve measured IC50.
Completion: 1 to 10 µM

Prompt: Param item = C[C@H]1COCCN1CC1(COc2nc(N3C[C@H]4CC[C@@H](C3)N4)c(C#N)c(N3CC4(CCc5sc(N)c(C#N)c54)C3)n2)CC1 [Compound 77] ; retrieve measured IC50.
Completion: 10 to 100 µM

Prompt: Param item = N#Cc1c(N2CCn3nncc3C2)nc(OC[C@@]23CCCN2C[C@H](F)C3)nc1N1CC2(CCc3sc(N)c(C#N)c32)C1 [Compound 55] ; retrieve measured IC50.
Completion: 10 to 100 µM

Prompt: Param item = N#Cc1c(N2C[C@H]3CC[C@@H](C2)[C@@H]3N)nc(OCC2(CN3CCOCC3)CC2)nc1N1CC2(CCc3sc(N)c(C#N)c32)C1 [Compound 61] ; retrieve measured IC50.
Completion: 0.1 to 1 µM

Prompt: Param item = N#Cc1c(N2C[C@H]3CC[C@@H](C2)N3)nc(OCc2[nH]ncc2F)nc1N1CC2(CCc3sc(N)c(C#N)c32)C1 [Compound 90] ; retrieve measured IC50.
Completion: 10 to 100 µM

Prompt: Param item = N#Cc1c(N2C[C@H]3CC[C@@H](C2)N3)nc(OCc2ccccc2)nc1N1CC2(CCc3sc(N)c(C#N)c32)C1 [Compound 76] ; retrieve measured IC50.
Completion: 0.1 to 1 µM

Prompt: Param item = N#Cc1c(N2CCC(O)C(O)CC2)nc(OC[C@@]23CCCN2C[C@H](F)C3)nc1N1CC2(CCc3sc(N)c(C#N)c32)C1 (stereo partly shown) [Compound 38] ; retrieve measured IC50.
Completion: 1 to 10 µM

Prompt: Param item = CC1Cn2nncc2CN1c1nc(OC[C@@]23CCCN2C[C@H](F)C3)nc(N2CC3(CCc4sc(N)c(C#N)c43)C2)c1C#N (stereo partly shown) [Compound 67] ; retrieve measured IC50.
Completion: 10 to 100 µM

Prompt: Param item = CC(=O)c1nn2c(c1Cl)CN(c1nc(OC[C@@]34CCCN3C[C@H](F)C4)nc(N3CC4(CCc5sc(N)c(C#N)c54)C3)c1C#N)CCC2 [Compound 13] ; retrieve measured IC50.
Completion: 1 to 10 µM

Prompt: Param item = Cn1c(-c2nn3c(c2Cl)CN(c2nc(OC[C@@]45CCCN4C[C@H](F)C5)nc(N4CC5(CCc6sc(N)c(C#N)c65)C4)c2C#N)CCC3)nc2ccccc21 [Compound 30] ; retrieve measured IC50.
Completion: 10 to 100 µM

Prompt: Param item = N#Cc1c(N2C[C@H]3CC[C@@H](C2)N3)nc(OCc2ccn[nH]2)nc1N1CC2(CCc3sc(N)c(C#N)c32)C1 [Compound 79] ; retrieve measured IC50.
Completion: 0.1 to 1 µM
